- System: Tov112D
- EXPERIMENT_NOTES: Primary qHTS to identify gynecologic anti-cancer compounds using libraries of approved drugs and bioactive compounds (AID 1345084); note: nearly all actives have a fitted effect of over 55% in size
- CONDITION_LABEL: Gynecologic cancer cell panel viability, ATPlite luminescence, 48 h; series mostly up to 57.5 µM
Results filed as inconclusive are left out. Activity calls are given as the source filed them. Calls come from the whole dose curve; as a rule, active = well fitted cell-killing curve with a large enough effect; inconclusive = small, poorly fitted or top-dose-only effect, or effect the other way; inactive = flat fitted curve, though single readings scatter.
Outcome (select one): active, inactive

A selection of reference data follows.
INSERT INTO measurements (compound, label_class) VALUES
  ('CC(C)(C)NC(=O)Nc1cccc(Nc2ncc(F)c(NC(C)(C)CO)n2)c1', 'inactive'),
  ('O=C(NCc1ccccc1)c1csc(Nc2ccncn2)n1', 'inactive'),
  ('CO[C@H]1C=CO[C@@]2(C)Oc3c(C)c(O)c4c(O)c(c5c(c4c3C2=O)NC2(CCN(CC(C)C)CC2)N=5)=NC(=O)C(C)=CC=C[C@H](C)[C@H](O)[C@@H](C)[C@@H](O)[C@@H](C)[C@H](OC(C)=O)[C@H]1C', 'inactive'),
  ('O=C(O)CCc1nc(-c2ccccc2)c(-c2ccccc2)o1', 'inactive'),
  ('CC(C)(C)c1cc(C(=O)O)c(NC(=O)Nc2ccc3[nH]ncc3c2)s1', 'inactive');

Hey, what did the test say about COc1ccccc1N1CCN(CCCNc2cc(=O)n(C)c(=O)n2C)CC1 ?
inactive

Hey, what did the test say about CCn1cc(C(=O)O)c(=O)c2ccc(C)nc21 ?
inactive
